assay_remarks: Toxicity liver stage against HepG2, at 10uM
Type: cell-based
Set-up: test concentration 10 uM, cell line HepG2-A16-CD81EGFP
condition_set: human, HepG2-A16-CD81EGFP cells; read-out: INHIBITION
hey, just use satisfied if measured cytotoxicity at 10 µM is less than -10%, otherwise not satisfied

compound	category
CCC(C)N(Cc1sccc1C)C(=O)c1cnc[nH]1 (stereo unspecified)	not satisfied

Problem: Does the reported cytotoxicity at 10 µM of the following compound sit strictly below -10%? CC(C)CC(=O)N1CCCn2cnc(CN3CCCC3=O)c2C1
Solution: not satisfied

Problem: Does the reported cytotoxicity at 10 µM of the following compound sit strictly below -10%? CN(CCOc1ccccc1)C(=O)Nc1cccn(C)c1=O
Solution: satisfied

Problem: Does the reported cytotoxicity at 10 µM of the following compound sit strictly below -10%? O=S(=O)(NCc1ccc(S(=O)(=O)N2CCCC2)s1)c1cc(Cl)ccc1Cl
Solution: satisfied

Problem: Does the reported cytotoxicity at 10 µM of the following compound sit strictly below -10%? CC(Cc1cccc(Cl)c1)NC(=O)Nc1cnn(CC(N)=O)c1 (stereo unspecified)
Solution: satisfied

Problem: Does the reported cytotoxicity at 10 µM of the following compound sit strictly below -10%? CCCS(=O)(=O)N1CCC(NC(=O)c2cc(C)c(CC)s2)CC1
Solution: not satisfied

Problem: Does the reported cytotoxicity at 10 µM of the following compound sit strictly below -10%? Cc1ncoc1C(=O)N1CC[C@@H](O)[C@@H](O)[C@H](N2CCC(F)(F)CC2)C1
Solution: not satisfied

Problem: Does the reported cytotoxicity at 10 µM of the following compound sit strictly below -10%? CN(C)c1ncnc2c1CCN(S(=O)(=O)c1cccc(Cl)c1Cl)C2
Solution: not satisfied
